Test system: NCI-H522 lung
assay_notes: NCI-60 one-dose screen, 48 h (100 = growth as untreated, 0 = no growth, -100 = all killed)
setup_conditions: 10 µM unless noted
This is part of a sample that, as a whole, favours compounds with a hit. Of some 83,000 tested, about 20% had one in any assay. The source made the active and inactive calls. The calls were made as follows: active = growth percent below 10; inactive = the rest.
So I've got a bunch of compounds here, and I need their growth values.

What value of growth has been reported for the following compound? O=C(N=c1n(-c2ccccc2)nc2n1CCN2C1=NCCN1C(=O)c1ccc(Cl)cc1)c1ccc(Cl)cc1
64.2% (inactive)

Entry to check: COc1ccc(C2=C(c3cn(C)c4ccccc34)C(=O)OC2)cc1OC
13.3% (inactive)

Entry to check: COc1ccc(NC(=S)NNc2ccc(-c3ccc(OC)c(OC)c3)nn2)cc1
97.9% (inactive)

Entry to check: CCN(CC)CCSC(=O)C(O)(c1ccccc1)C1CCCC1 (stereo not given)
86.7% (inactive)

Entry to check: CN(C)Cc1ccc[nH]1
67.6% (inactive)

Entry to check: CC[C@]12C=CCN3CC[C@@]4(c5ccc(OC)cc5N(C)[C@H]4[C@@](O)(C(=O)OC)[C@@H]1OC(=O)CCC(=O)N[C@H](Cc1c[nH]c4ccccc14)C(=O)OC)[C@@H]32
-16.2% [100 µM] (active)

Entry to check: N#CCCc1c[nH]c2ccccc12
94.6% (inactive)

Entry to check: O=c1[nH]c2cc(Cl)c(Cl)cc2n2cc3ncccc3c12
43.8% (inactive)

Entry to check: O=C1Cc2c(sc3c(F)cccc23)C(c2ccccc2[N+](=O)[O-])N1 (stereo not given)
102% (inactive)

Entry to check: CC(C)(C)c1cc(C(=O)N2CCC(C(=O)NCCN)CC2)cc(C(C)(C)C)c1
66% (inactive)
